Target: Human recombinant adrenergic beta-1 (Homo sapiens, UniProt P08588)
Sequence (P08588 whole entry): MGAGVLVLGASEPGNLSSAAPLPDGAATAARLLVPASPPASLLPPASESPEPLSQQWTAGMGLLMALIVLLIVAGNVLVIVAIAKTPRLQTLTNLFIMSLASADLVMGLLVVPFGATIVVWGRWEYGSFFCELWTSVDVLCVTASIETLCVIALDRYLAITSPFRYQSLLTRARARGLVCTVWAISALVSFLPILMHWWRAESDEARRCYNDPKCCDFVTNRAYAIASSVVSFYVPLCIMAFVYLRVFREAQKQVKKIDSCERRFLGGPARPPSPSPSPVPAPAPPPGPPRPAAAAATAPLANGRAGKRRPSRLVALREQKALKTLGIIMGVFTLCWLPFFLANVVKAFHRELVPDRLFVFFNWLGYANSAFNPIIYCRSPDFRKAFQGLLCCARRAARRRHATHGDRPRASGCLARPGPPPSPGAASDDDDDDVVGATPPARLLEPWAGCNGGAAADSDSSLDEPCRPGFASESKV
Assay: Human recombinant adrenergic beta-1 radioligand binding assay ([125I]Cyanopindolol)
Conditions: [125I]Cyanopindolol radioligand; read-out: Binding efficacy IC50
OUTCOME_MEASURE: IC50 (µM)

A. Cc1cc(O)c(O)cc1C(=O)OC[C@@H](O)CNC(C)(C)CO
B. Cc1cc(O)c(O)cc1C(=O)OC[C@@H](O)CNC(C)(C)COC(=O)C(C)(C)C
C. Cc1cc(O)c(O)cc1C(=O)OC[C@@H](O)CNC(C)(C)COC(=O)C1CCOC1 (stereo partly drawn)
Task: Sort the entries above by IC50, largest first. I'd appreciate it if you listed the labels in the requested order.
Result: A, B, C
